- Assay name: viability loss in pontine glioma line – cell-based, SU-DIPG-XXV, MIPE5.0, CellTiter-Glo, qHTS, dose response (AID 1347065);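 also: cells exposed to compound for 48 hours before ATP readout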
- Reported conditions: CellTiter-Glo ATP luminescence
Inconclusive results are not listed. Active and inactive are the calls of the source. The limit is not given here; nearly all actives have AC50 up to about 26 µM.
Can you answer with just one of these options? active, inactive

Recorded results for 5 compounds are shown here.
[
  {
    "Compound": "C=C(C)[C@@H]1CC[C@]2(C)CC[C@]3(C)[C@H](CC[C@@H]4[C@@]5(C)CC[C@H](O)C(C)(C)[C@@H]5CC[C@]43C)[C@@H]12",
    "Class": "inactive"
  },
  {
    "Compound": "Cn1cncc1[C@@](N)(c1ccc(Cl)cc1)c1ccc2c(c1)c(-c1cccc(Cl)c1)cc(=O)n2C",
    "Class": "active"
  },
  {
    "Compound": "O=C(Nc1ccc2c(c1)CCN(Cc1ncn[nH]1)C2)c1ccccc1-c1ccc(C(F)(F)F)cc1",
    "Class": "inactive"
  },
  {
    "Compound": "O=C(c1ccc(/C=C/c2n[nH]c3ccccc23)cc1)N1CCNCC1",
    "Class": "active"
  },
  {
    "Compound": "Cc1c(NC(=O)c2cc3c(s2)CCCC3)cccc1-c1cn(C)c(=O)c(Nc2ccc(C3C(=O)N(C)CCN3C)cc2)n1 (stereo not drawn)",
    "Class": "active"
  }
]

Record request — test call for COc1ccc(CC2SC(=O)NC2=O)cc1C(=O)NCc1ccc(C(F)(F)F)cc1 (stereo not drawn)
inactive

Record request — test call for `CC(C)(N)c1ccc(-c2nc3ccccc3nc2-c2ccccc2)cc1`
active

Record request — test call for `NCc1ccc(OCCCc2sc(-c3ccc4c(c3)/C(=N/Nc3nc5ccccc5s3)CCC4)nc2C(=O)O)cc1`
inactive
